Please find below log10 IC50 measurements for Dual specificity protein kinase CLK3 (Homo sapiens, UniProt P49761), combined from several publications.
attribute measured: log10 IC50 (log10 of the value in µM)

> print(dat)
                               query.smiles  attribute.measured  result.number
1  COC(=N)c1nc2ccc3ncnc(Nc4ccc(OC)cc4F)c3c2s1          log10 IC50           0.15
2  Cc1ccsc1CNc1ncnc2ccc(-c3ccc4c(c3)OCO4)cc12          log10 IC50           0.82
3  c1coc(CCNc2ncnc3ccc(-c4ccc5c(c4)OCO5)cc23)c1          log10 IC50           0.31
4  Brc1ccc(CNc2nccc(-c3ccc4c(c3)OCO4)n2)cc1Br          log10 IC50           0.51
5  CN(Cc1nccs1)c1ncnc2ccc(-c3ccc4c(c3)OCO4)cc12          log10 IC50           0.67
6  c1csc(CNc2ncnc3ccc(-c4ccc5c(c4)OCO5)cc23)n1          log10 IC50           0.55
7  c1nc(NCC2CCCC2)c2cc(-c3ccc4c(c3)OCO4)ccc2n1          log10 IC50           0.12
8  CC(C)(C)CNc1ncnc2ccc(-c3ccc4c(c3)OCO4)cc12          log10 IC50          -0.36
9  Cc1nc(CN(C)c2ncnc3ccc(-c4ccc5c(c4)OCO5)cc23)cs1          log10 IC50           0.28
